Entries and their measured LD50 follow.
# PROTOCOL_DESCRIPTION: LD50 (mouse), acute toxicity
# Assay type: in vivo
# MEASUREMENT_SETUP: in vivo, sc; mouse
Counter-ions that a name gives are not always drawn.

COMPOUND: CN[C@@H](C)Cc1ccccc1 [d-Methamphetamine . HCl]
UNIT_OF_MEASUREMENT: mg/kg
LD50: 14

COMPOUND: C[C@H](N)Cc1ccccc1 [d-Amphetamine . 1/2 H2 SO4]
UNIT_OF_MEASUREMENT: mg/kg
LD50: 22

----------
Entries and their measured minimal effective dose follow.
# Test system: rats
# PROTOCOL_DESCRIPTION: Turning rat test (rotation in rats with unilateral 6-OHDA lesion of the medial forebrain bundle)
# Format: in vivo
# MEASUREMENT_SETUP: Rattus norvegicus, ip, 1 h; i.p.; active = more than 100 turns/hour; 5 rats per dose; read-out: Turning rat test minimum active dosage
Where a name gives a salt, the structure may show the parent alone.

MOLECULE: CN[C@@H](C)Cc1ccccc1 [d-Methamphetamine . HCl]
UNIT_OF_MEASUREMENT: mg/kg
minimal effective dose: 1
//
MOLECULE: C[C@H](N)Cc1ccccc1 [d-Amphetamine . 1/2 H2 SO4]
UNIT_OF_MEASUREMENT: mg/kg
minimal effective dose: 1
//
MOLECULE: CCn1cc(C(=O)O)c(=O)cc1-c1ccc2ccccc2c1
UNIT_OF_MEASUREMENT: mg/kg
minimal effective dose: 1
//
MOLECULE: CN1Cc2c(N)cccc2C(c2ccccc2)C1 (stereo not shown) [Nomifensin]
UNIT_OF_MEASUREMENT: mg/kg
minimal effective dose: 3

----------
# PROTOCOL_DESCRIPTION: LD50 (mouse), acute toxicity
# Format: in vivo
# MEASUREMENT_SETUP: in vivo, iv; mouse
Where a name gives a salt, the structure may show the parent alone.
Entries and their measured LD50 follow.
READOUT_LABEL: LD50 (mg/kg)

COMPOUND: C[C@H](N)Cc1ccccc1
READOUT_LABEL: LD50
ENDPOINT_RESULT: 14

COMPOUND: CN[C@@H](C)Cc1ccccc1 [d-Methamphetamine . HCl]
READOUT_LABEL: LD50
ENDPOINT_RESULT: 9.5
